Please provide measured Ki for the entries that follow.
- assayed target: human sigma 1 receptor (Homo sapiens (Human))
- Sequence (Q99720 whole entry): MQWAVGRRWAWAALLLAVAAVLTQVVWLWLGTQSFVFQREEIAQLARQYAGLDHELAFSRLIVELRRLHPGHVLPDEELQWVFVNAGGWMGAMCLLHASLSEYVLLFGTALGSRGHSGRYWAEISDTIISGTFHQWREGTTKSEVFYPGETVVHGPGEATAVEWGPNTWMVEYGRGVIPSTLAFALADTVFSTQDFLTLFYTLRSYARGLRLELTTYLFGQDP
- test: Human Sigma 1 Receptor Radioligand Assay
- Assay type: binding
- measurement setup: transfected HEK-293 membranes, 5 nM [3H](+)-pentazocine as radioligand, 37° C., 120 minutes
Answer with the number, then the unit.

Request: Which Ki value belongs to CC(C(=O)N1CCN2c3ccccc3CC2C1)N1CCN(C)CC1 (stereo not drawn) [Example 25] ?
Result: 118 nM

Request: Which Ki value belongs to CCC(C(=O)N1CCn2c(cc3ccccc32)C1)N1CCN(C)CC1 (stereo not drawn) [Example 38] ?
Result: 89.3 nM

Request: Which Ki value belongs to CN1CCN(C(C)(C)C(=O)N2CCN3c4ccccc4CC3C2)CC1 (stereo not drawn) [Example 44] ?
Result: 175 nM

Request: Which Ki value belongs to CC(C(=O)N1CCn2c(cc3ccccc32)C1)N1CCC(Cc2ccccc2)CC1 (stereo not drawn) [Example 10] ?
Result: 25 nM

Request: Which Ki value belongs to C[C@@H](CC(=O)N1CCn2c(cc3ccccc32)C1)N1CCN(C)CC1 [Example 49] ?
Result: 91.7 nM

Request: Which Ki value belongs to C[C@H](C(=O)N1CCN2c3ccccc3C[C@H]2C1)N1CCN(C2CCCCC2)CC1 [Example 51] ?
Result: 59.9 nM

Request: Which Ki value belongs to O=C(CN1CCCCCC1)N1CCn2c(cc3cc(F)ccc32)C1 [Example 12] ?
Result: 14.6 nM

Request: Which Ki value belongs to Cc1ccc2c(c1)cc1n2CCN(C(=O)C(C)N2CCCCCC2)C1 (stereo not drawn) [Example 13] ?
Result: 69.7 nM

Request: Which Ki value belongs to O=C(CCCN1CCCCC1)N1CCn2c(cc3ccccc32)C1 [Example 20] ?
Result: 28.8 nM
